Entries annotated with measured pIC50
# TESTED_ON: Jak3 enzyme (aa 811-1103) (Homo sapiens, UniProt P52333)
# Construct: Jak3 enzyme (aa 811-1103); expressed in SF9 cells as a GST fusion; GST; made in house; host or cells: SF9 insect cells
# Sequence (P52333 811-1103): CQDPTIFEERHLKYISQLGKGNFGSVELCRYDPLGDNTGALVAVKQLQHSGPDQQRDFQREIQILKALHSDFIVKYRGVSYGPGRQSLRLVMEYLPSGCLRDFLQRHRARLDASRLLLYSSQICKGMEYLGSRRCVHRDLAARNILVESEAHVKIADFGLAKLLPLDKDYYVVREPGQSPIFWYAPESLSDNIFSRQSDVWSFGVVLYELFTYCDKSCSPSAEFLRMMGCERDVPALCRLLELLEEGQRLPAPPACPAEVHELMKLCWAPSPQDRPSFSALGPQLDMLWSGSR
# EXPERIMENTAL_DETAILS: In vitro Jak3 kinase activity measured by time-resolved fluorescence resonance energy transfer (trFRET)
# Format: biochemical
# COND: ATP 0.001 mM, Table B
# Description: In Vitro Jak3 Kinase Activity Measured by Time-Resolved Fluorescence Resonance Energy Transfer (trFRET) […]
pIC50: −log10 of the molar value.

In [3]: df
Out[3]:
                            smiles_notation        result
0  CC[C@@H]1C[C@H](NC(=O)c2cc3ccccc3o2)C[C@@H]1c1nnc2cnc3[nH]ccc3n12  5.00 to 6.00
1  CC[C@@H]1C[C@H](NC(=O)C2=NN=C(c3ccco3)C2)C[C@@H]1c1nnc2cnc3[nH]ccc3n12        > 6.00
2  CC[C@@H]1C[C@H](NC(=O)c2ccc(C)o2)C[C@@H]1c1nnc2cnc3[nH]ccc3n12        < 5.00

Entry CC[C@@H]1C[C@H](NC(=O)CCc2ccc(C)o2)C[C@@H]1c1nnc2cnc3[nH]ccc3n12 ; pIC50 = 5.00 to 6.00

// pIC50 lookup, compound = CC[C@@H]1C[C@H](NC(=O)c2ncoc2C)C[C@@H]1c1nnc2cnc3[nH]ccc3n12 , result: 5.00 to 6.00

Field pIC50 (entry CCc1cc(C(=O)N[C@H]2C[C@@H](CC)[C@@H](c3nnc4cnc5[nH]ccc5n34)C2)no1 ) reads 5.00 to 6.00

Sure, the documented pIC50 for CC[C@@H]1C[C@H](NC(=O)CCC2CCCCC2)C[C@@H]1c1nnc2cnc3[nH]ccc3n12 is 5.00 to 6.00
